# TARGET_ENTITY: T1, human glucose-dependent insulinotropic peptide (gastric inhibitory polypeptide) receptor (human, UniProt P48546 22-466)
# T1 sequence (looked up): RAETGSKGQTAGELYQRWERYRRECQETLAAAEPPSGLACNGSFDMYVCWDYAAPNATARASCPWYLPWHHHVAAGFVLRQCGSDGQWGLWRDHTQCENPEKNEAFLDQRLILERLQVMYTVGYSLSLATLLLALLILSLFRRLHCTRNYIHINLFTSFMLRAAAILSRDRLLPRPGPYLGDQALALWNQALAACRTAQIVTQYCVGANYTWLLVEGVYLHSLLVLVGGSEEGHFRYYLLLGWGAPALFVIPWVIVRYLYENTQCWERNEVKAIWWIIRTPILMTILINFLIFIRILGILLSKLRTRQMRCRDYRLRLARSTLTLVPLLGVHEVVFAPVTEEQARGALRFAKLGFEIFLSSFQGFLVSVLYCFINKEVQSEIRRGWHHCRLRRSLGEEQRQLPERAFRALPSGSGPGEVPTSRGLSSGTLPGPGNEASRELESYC
# PROTOCOL_NOTES: cell-based or functional assay
Ends that are not written are not given here.
MEASURED_ATTRIBUTE: cAMP EC50 (assay 1) (nM)

{"BINDER": "HSQGTFTSDYSKYLDSRRAQDFVQWLVAGGSSGGSS-NH2 [g316]", "MEASURED_ATTRIBUTE": "cAMP EC50 (assay 1)", "MEASURE_UNIT": "nM", "RESULT_NUMBER": 3.65}
{"BINDER": "HGQGTFTSDYSKYLDSKRAQDFVQWLVAGG (X17 = K(gE-palm); C-terminal amide) [G380]", "MEASURED_ATTRIBUTE": "cAMP EC50 (assay 1)", "MEASURE_UNIT": "nM", "RESULT_NUMBER": 609}
{"BINDER": "HSQGTFTSDYSKYLDSRRAQDFVQWLVAGGGGGG-NH2 [g315]", "MEASURED_ATTRIBUTE": "cAMP EC50 (assay 1)", "MEASURE_UNIT": "nM", "RESULT_NUMBER": 19.7}
{"BINDER": "HSQGTFTSDYSKYLDSRRAQDFVQWLVAGGKNNRNNIAK-NH2 [g321]", "MEASURED_ATTRIBUTE": "cAMP EC50 (assay 1)", "MEASURE_UNIT": "nM", "RESULT_NUMBER": 6.41}
